# TARGET OF ASSAY: 5HT1A receptors (Canis lupus familiaris)
# Sequence (Q6XXX9 1-423): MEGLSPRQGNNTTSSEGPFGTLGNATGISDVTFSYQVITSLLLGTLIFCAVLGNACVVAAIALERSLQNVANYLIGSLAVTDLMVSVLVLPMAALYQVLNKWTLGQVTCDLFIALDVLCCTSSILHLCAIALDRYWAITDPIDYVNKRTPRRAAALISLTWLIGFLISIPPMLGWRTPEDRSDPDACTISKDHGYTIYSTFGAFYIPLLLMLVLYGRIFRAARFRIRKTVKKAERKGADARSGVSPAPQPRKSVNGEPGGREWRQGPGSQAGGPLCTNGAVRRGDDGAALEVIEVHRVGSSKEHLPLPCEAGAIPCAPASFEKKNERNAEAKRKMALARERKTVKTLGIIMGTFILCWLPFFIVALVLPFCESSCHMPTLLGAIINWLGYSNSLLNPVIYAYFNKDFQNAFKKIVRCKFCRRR
# TEST DESCRIPTION: biochemical
# Type: binding, dog
# EXPERIMENTAL PARAMETERS: competitive binding vs [^3 H]8-OH-DPAT, dog hippocampus membrane; buspirone value is an average; read-out: 5HT1A IC50
pIC50: −log10 of the molar value.
ENDPOINT LABEL: pIC50

Examples with answers:
{"columns": ["MOLECULE", "pIC50"],
 "data": [
  ["O=C1OC(CCCN2CCN(c3ncccn3)CC2)CN1c1ccccc1 (stereo not shown)", 6.77],
  ["CN1CC(CCCCN2CCN(c3ccccc3O)CC2)OC1=O (stereo not shown)", 7.40]
]}

[a] CN1CC(CCCCN2CCN(c3ccccn3)CC2)OC1=O (stereo not shown)
[b] CN1CC(CCCN2CCN(c3ccccc3O)CC2)OC1=O (stereo not shown)
Query: Looking only at measured pIC50, which entry is lower, a or b ? Selection: enter the item's label.
Reply: b

====

# TARGET OF ASSAY: 5HT1A receptors (Canis lupus familiaris)
# TEST DESCRIPTION: biochemical
# Assay type: binding, dog
# EXPERIMENTAL PARAMETERS: competitive binding vs [^3 H]8-OH-DPAT, dog hippocampus membrane; buspirone value is an average; read-out: 5HT1A IC50
pIC50: −log10 of the molar value.
ENDPOINT LABEL: pIC50

{"columns": ["COMPOUND", "pIC50"],
 "data": [
  ["COc1ccccc1N1CCN(CCCC2CN(c3ccccc3)C(=O)O2)CC1 (stereo not shown)", 7.96]
]}

[1] O=C1OC(CCCCN2CCN(c3ccccc3)CC2)CN1c1ccccc1 (stereo not shown)
[2] CN1CC(CCCCN2CCN(c3ccccc3)CC2)OC1=O (stereo not shown)
Query: Higher pIC50: 1 or 2 ? Selection: enter the item's label.
Reply: 1

[a] O=C1OC(CCCN2CCN(c3ccccn3)CC2)CN1c1ccccc1 (stereo not shown)
[b] CCOc1ccccc1N1CCN(CCCC2CN(c3ccccc3)C(=O)O2)CC1 (stereo not shown)
Query: Looking only at measured pIC50, which entry is lower, a or b ? Selection: enter the item's label.
Reply: a

====

# TARGET OF ASSAY: UniProtKB Q6XXX9
# Sequence (Q6XXX9 1-423): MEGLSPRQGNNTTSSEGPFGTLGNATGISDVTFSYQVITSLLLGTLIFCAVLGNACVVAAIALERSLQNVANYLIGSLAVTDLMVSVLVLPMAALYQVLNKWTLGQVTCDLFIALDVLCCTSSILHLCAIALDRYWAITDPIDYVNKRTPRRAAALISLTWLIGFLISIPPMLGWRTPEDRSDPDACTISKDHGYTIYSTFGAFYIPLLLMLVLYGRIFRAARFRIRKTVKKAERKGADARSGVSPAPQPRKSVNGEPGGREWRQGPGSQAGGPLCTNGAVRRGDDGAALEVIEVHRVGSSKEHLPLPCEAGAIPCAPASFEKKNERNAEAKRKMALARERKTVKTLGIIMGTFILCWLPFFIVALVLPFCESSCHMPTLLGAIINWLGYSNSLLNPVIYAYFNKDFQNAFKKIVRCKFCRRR
# TEST DESCRIPTION: biochemical
# Format: binding, dog
# EXPERIMENTAL PARAMETERS: competitive binding vs [^3 H]8-OH-DPAT, dog hippocampus membrane; buspirone value is an average; read-out: 5HT1A IC50
Where a name gives a salt, the structure may show the parent alone.
ENDPOINT LABEL: IC50 (nM)

Examples with answers:
{"columns": ["COMPOUND", "IC50 (nM)"],
 "data": [
  ["C=CCOc1ccccc1N1CCN(CCCCC2CN(C)C(=O)O2)CC1 (centres unmarked)", 20],
  ["O=C1OC(CCCN2CCN(c3ccccc3)CC2)CN1c1ccccc1 (centres unmarked)", 50],
  ["CCOc1ccccc1N1CCN(CCCC2CN(C)C(=O)O2)CC1 (centres unmarked)", 22],
  ["CCOc1ccccc1N1CCN(CCCCC2CN(c3ccccc3)C(=O)O2)CC1 (centres unmarked)", 2],
  ["COc1ccccc1N1CCN(CCCC2CN(C)C(=O)O2)CC1 (centres unmarked)", 29],
  ["CN1CC(CCCCN2CCN(c3ncccn3)CC2)OC1=O (centres unmarked)", 190],
  ["COc1ccccc1N1CCN(CCCCC2CN(C)C(=O)O2)CC1.Cl.Cl (centres unmarked) [Example 3, dihydrochloride]", 15],
  ["CCOc1ccccc1N1CCN(CCCCC2CN(C)C(=O)O2)CC1 (centres unmarked) [Example 9, dihydrochloride]", 16],
  ["O=C1OC(CCCCN2CCN(c3ncccn3)CC2)CN1c1ccccc1 (centres unmarked)", 29],
  ["COc1ccccc1N1CCN(CCCCC2CN(c3ccccc3)C(=O)O2)CC1 (centres unmarked)", 2.2]
]}

[A] O=C1OC(CCCCN2CCN(c3ccccn3)CC2)CN1c1ccccc1 (centres unmarked)
[B] CN1CC(CCCN2CCN(c3ncccn3)CC2)OC1=O (centres unmarked)
Query: Higher IC50: A or B ? Selection: enter the item's label.
Reply: B
(B: 510 nM, A: 7.7 nM)

[1] CN1CC(CCCN2CCN(c3ccccn3)CC2)OC1=O (centres unmarked)
[2] O=C1OC(CCCCN2CCN(c3ccccc3O)CC2)CN1c1ccccc1 (centres unmarked)
Query: Higher IC50: 1 or 2 ? Selection: enter the item's label.
Reply: 1
